Target: dehydropeptidase-I (renal dipeptidase, EC 3.4.13.11) (Sus scrofa)
Construct: isolated from hog kidneys; from tissue; host or cells: hog kidney, solubilized and lyophilized enzyme preparation
Sequence (P22412 17-409): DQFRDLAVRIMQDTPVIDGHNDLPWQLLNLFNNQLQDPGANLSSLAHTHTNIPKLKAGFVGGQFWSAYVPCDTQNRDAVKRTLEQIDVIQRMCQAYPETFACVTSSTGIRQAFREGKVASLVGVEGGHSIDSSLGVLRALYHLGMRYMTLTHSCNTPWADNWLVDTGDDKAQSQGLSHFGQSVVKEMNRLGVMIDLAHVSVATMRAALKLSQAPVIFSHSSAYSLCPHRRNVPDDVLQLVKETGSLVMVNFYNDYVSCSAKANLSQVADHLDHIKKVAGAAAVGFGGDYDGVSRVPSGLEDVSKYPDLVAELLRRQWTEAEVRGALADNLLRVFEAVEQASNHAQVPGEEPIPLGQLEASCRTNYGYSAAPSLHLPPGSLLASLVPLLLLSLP
Experiment: Renal dehydropeptidase I inhibition (hydrolysis of glycyldehydrophenylalanine)
Assay type: biochemical, hog
Conditions: read-out: RENAL DEHYDROPEPTIDASE I INHIBITION Ki
Task for the reader: assign each of the following compounds its reported pKi.
Please keep in mind that pKi is minus log10 of the molar concentration; only the number is needed.

Ask: Assign pKi to the following record: CC(N)P(=O)(O)CC(CCCc1ccncc1)C(=O)O (stereo not drawn)
Reply: 7.92

Ask: Assign pKi to the following record: CC(N)P(=O)(O)C/C(=C/CCc1ccccc1)C(=O)O (stereo not drawn)
Reply: 8.15

Ask: Assign pKi to the following record: CC(N)P(=O)(O)C/C(=C\CCc1ccccc1)C(=O)O (stereo not drawn)
Reply: 7.80
